# MEASUREMENT_DESCRIPTION: Plasma concentration in ovalbumin-sensitized/challenged Balb/C mouse model of allergic airway inflammation at 150 mg/kg, sc after 14 days
# Assay type: ADME, organism-based
# Parameters: dose 150 mg/kg, route subcutaneous
OBSERVED_PROPERTY: concentration at 336 h
Returns: string containing the number followed by the unit.

-- ask What does the record list as concentration at 336 h for "COc1cc(OC)c(-c2cc3ccccc3[nH]2)cc1/C=C/C(=O)c1ccc(C(=O)O)cc1" ?
-- reply 19 µM

====

# MEASUREMENT_DESCRIPTION: Plasma concentration in ovalbumin-sensitized/challenged Balb/C mouse model of allergic airway inflammation at 50 mg/kg, sc after 14 days
# Format: ADME, organism-based
# Parameters: dose 50 mg/kg, route subcutaneous
OBSERVED_PROPERTY: concentration at 336 h (µM)
Answers are plain numbers, in µM.

-- ask What does the data say about its concentration at 336 h? Entry: "COc1cc(OC)c(-c2cc3ccccc3[nH]2)cc1/C=C/C(=O)c1ccc(C(=O)O)cc1"
-- reply 10

All values here come from ChEMBL document CHEMBL1142958.
